B1: TPR t1 (parent)
chain: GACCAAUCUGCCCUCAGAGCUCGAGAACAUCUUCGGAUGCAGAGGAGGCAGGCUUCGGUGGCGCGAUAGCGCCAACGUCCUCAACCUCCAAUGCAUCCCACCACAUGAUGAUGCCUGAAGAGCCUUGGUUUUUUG

Variants of: B1
Experiment: polymerase ribozyme fitness, log enrichment relative to wild type (log ratio); higher = more active; in vitro selection for triplet polymerase activity
Measurement name: polymerase ribozyme fitness (log ratio)
Give your answer as a number; write no unit.

Example results:
| Mutant label | Measurement name | Result number |
| --- | --- | --- |
| C12U U116G | polymerase ribozyme fitness (log ratio) | -0.0621 |
| C13U A41U U126C | polymerase ribozyme fitness (log ratio) | -2.14 |
| U14G C40A G71U A121G G127U | polymerase ribozyme fitness (log ratio) | 0.306 |
| A84U C94A C115A | polymerase ribozyme fitness (log ratio) | -1.46 |
| A2C G61A | polymerase ribozyme fitness (log ratio) | -1.72 |

Would you kindly look at the next entry?
(Q) Would you mind telling me what polymerase ribozyme fitness (log ratio) value was observed for C15U C88G A103C C115G ?
(A) -6.98
